assay: Plasma pharmacokinetics of paclitaxel and alpelisib in Cycle 1; type: in vivo, human; conditions: human, plasma, po, oral alpelisib 250 mg QD + paclitaxel; C1D8; read-out: Cmax, geometric mean (CV%)
MEASURED METRIC: Cmax (ng/mL)
Provide the reading as a plain figure in ng/mL.

Problem: // lookup Cmax for Cc1nc(NC(=O)N2CCC[C@H]2C(N)=O)sc1-c1ccnc(C(C)(C)C(F)(F)F)c1 [alpelisib]
Result: 3750

----------
Assay: Plasma pharmacokinetics of paclitaxel and alpelisib in Cycle 1
Type: in vivo, human
Settings: human, plasma, po, oral alpelisib 150 mg QD + paclitaxel; C1D8; read-out: Tmax, median (range)
Description: PK samples for alpelisib were collected from all patients. […]
MEASURED METRIC: Tmax (h)
Provide the reading as a plain figure in h.

Problem: // lookup Tmax for Cc1nc(NC(=O)N2CCC[C@H]2C(N)=O)sc1-c1ccnc(C(C)(C)C(F)(F)F)c1 [alpelisib]
Result: 3.17

----------
test: Plasma pharmacokinetics of paclitaxel and alpelisib in Cycle 1; format: in vivo, human; details: human, plasma, iv, paclitaxel 80 mg/m^2 IV; C1D8; alpelisib 250 mg + paclitaxel cohort; read-out: Cmax, geometric mean (CV%)
MEASURED METRIC: Cmax (ng/mL)
Provide the reading as a plain figure in ng/mL.

Problem: // lookup Cmax for `CC(=O)O[C@H]1C(=O)[C@@]2(C)[C@H]([C@H](OC(=O)c3ccccc3)[C@]3(O)C[C@H](OC(=O)[C@H](O)[C@@H](NC(=O)c4ccccc4)c4ccccc4)C(C)=C1C3(C)C)[C@]1(OC(C)=O)CO[C@@H]1C[C@@H]2O`
Result: 2960

----------
test: Plasma pharmacokinetics of paclitaxel and alpelisib in Cycle 1; type: in vivo, human; settings: human, plasma, iv, paclitaxel 80 mg/m^2 IV; C1D8; alpelisib 300 mg + paclitaxel cohort; read-out: AUCinf, geometric mean (CV%)
MEASURED METRIC: AUC(0-inf)
Be sure to follow the number with its unit.

Problem: // lookup AUC(0-inf) for CC(=O)O[C@H]1C(=O)[C@@]2(C)[C@H]([C@H](OC(=O)c3ccccc3)[C@]3(O)C[C@H](OC(=O)[C@H](O)[C@@H](NC(=O)c4ccccc4)c4ccccc4)C(C)=C1C3(C)C)[C@]1(OC(C)=O)CO[C@@H]1C[C@@H]2O [paclitaxel]
Result: 4470 ng·h/mL

----------
experiment: Plasma pharmacokinetics of paclitaxel and alpelisib in Cycle 1; format: in vivo, human; conditions: human, plasma, iv, paclitaxel 80 mg/m^2 IV; C1D8; alpelisib 150 mg + paclitaxel cohort; read-out: Cmax, geometric mean (CV%)
MEASURED METRIC: Cmax (ng/mL)
Provide the reading as a plain figure in ng/mL.

Problem: // lookup Cmax for `CC(=O)O[C@H]1C(=O)[C@@]2(C)[C@H]([C@H](OC(=O)c3ccccc3)[C@]3(O)C[C@H](OC(=O)[C@H](O)[C@@H](NC(=O)c4ccccc4)c4ccccc4)C(C)=C1C3(C)C)[C@]1(OC(C)=O)CO[C@@H]1C[C@@H]2O`
Result: 2790

----------
assay: Plasma pharmacokinetics of paclitaxel and alpelisib in Cycle 1; type: in vivo, human; conditions: human, plasma, iv, paclitaxel 80 mg/m^2 IV; C1D8; alpelisib 150 mg + paclitaxel cohort; read-out: AUCinf, geometric mean (CV%)
MEASURED METRIC: AUC(0-inf) (ng·h/mL)
Provide the reading as a plain figure in ng·h/mL.

Problem: // lookup AUC(0-inf) for `CC(=O)O[C@H]1C(=O)[C@@]2(C)[C@H]([C@H](OC(=O)c3ccccc3)[C@]3(O)C[C@H](OC(=O)[C@H](O)[C@@H](NC(=O)c4ccccc4)c4ccccc4)C(C)=C1C3(C)C)[C@]1(OC(C)=O)CO[C@@H]1C[C@@H]2O`
Result: 4370

----------
test: Plasma pharmacokinetics of paclitaxel and alpelisib in Cycle 1; format: in vivo, human; details: human, plasma, iv, 80 mg/m^2, paclitaxel 80 mg/m^2 IV; C1D1; alpelisib 250 mg + paclitaxel cohort; read-out: AUCinf, geometric mean (CV%)
MEASURED METRIC: AUC(0-inf) (ng·h/mL)
Provide the reading as a plain figure in ng·h/mL.

Problem: // lookup AUC(0-inf) for CC(=O)O[C@H]1C(=O)[C@@]2(C)[C@H]([C@H](OC(=O)c3ccccc3)[C@]3(O)C[C@H](OC(=O)[C@H](O)[C@@H](NC(=O)c4ccccc4)c4ccccc4)C(C)=C1C3(C)C)[C@]1(OC(C)=O)CO[C@@H]1C[C@@H]2O [paclitaxel]
Result: 4320

----------
test: Plasma pharmacokinetics of paclitaxel and alpelisib in Cycle 1; type: in vivo, human; settings: human, plasma, iv, 80 mg/m^2, paclitaxel 80 mg/m^2 IV; C1D1; alpelisib 150 mg + paclitaxel cohort; read-out: Cmax, geometric mean (CV%)
MEASURED METRIC: Cmax (ng/mL)
Provide the reading as a plain figure in ng/mL.

Problem: // lookup Cmax for `CC(=O)O[C@H]1C(=O)[C@@]2(C)[C@H]([C@H](OC(=O)c3ccccc3)[C@]3(O)C[C@H](OC(=O)[C@H](O)[C@@H](NC(=O)c4ccccc4)c4ccccc4)C(C)=C1C3(C)C)[C@]1(OC(C)=O)CO[C@@H]1C[C@@H]2O`
Result: 2650

----------
assay: Plasma pharmacokinetics of paclitaxel and alpelisib in Cycle 1; type: in vivo, human; settings: human, plasma, po, oral alpelisib 300 mg QD + paclitaxel; C1D8; read-out: Tmax, median (range)
MEASURED METRIC: Tmax (h)
Provide the reading as a plain figure in h.

Problem: // lookup Tmax for Cc1nc(NC(=O)N2CCC[C@H]2C(N)=O)sc1-c1ccnc(C(C)(C)C(F)(F)F)c1 [alpelisib]
Result: 4.17

----------
Test: Plasma pharmacokinetics of paclitaxel and alpelisib in Cycle 1
Assay type: in vivo, human
Settings: human, plasma, po, oral alpelisib 300 mg QD + paclitaxel; C1D8; read-out: AUC0–24, geometric mean (CV%)
Description: PK samples for alpelisib were collected from all patients. […]
MEASURED METRIC: AUC(0-t)
Be sure to follow the number with its unit.

Problem: // lookup AUC(0-t) for `Cc1nc(NC(=O)N2CCC[C@H]2C(N)=O)sc1-c1ccnc(C(C)(C)C(F)(F)F)c1`
Result: 37100 ng·h/mL

----------
assay: Plasma pharmacokinetics of paclitaxel and alpelisib in Cycle 1; format: in vivo, human; details: human, plasma, iv, 80 mg/m^2, paclitaxel 80 mg/m^2 IV; C1D1; alpelisib 150 mg + paclitaxel cohort; read-out: AUCinf, geometric mean (CV%)
MEASURED METRIC: AUC(0-inf) (ng·h/mL)
Provide the reading as a plain figure in ng·h/mL.

Problem: // lookup AUC(0-inf) for `CC(=O)O[C@H]1C(=O)[C@@]2(C)[C@H]([C@H](OC(=O)c3ccccc3)[C@]3(O)C[C@H](OC(=O)[C@H](O)[C@@H](NC(=O)c4ccccc4)c4ccccc4)C(C)=C1C3(C)C)[C@]1(OC(C)=O)CO[C@@H]1C[C@@H]2O`
Result: 4360

----------
Assay: Plasma pharmacokinetics of paclitaxel and alpelisib in Cycle 1
Assay type: in vivo, human
Conditions: human, plasma, po, oral alpelisib 250 mg QD + paclitaxel; C1D8; read-out: Tmax, median (range)
Excerpt: PK samples for alpelisib were collected from all patients. […]
MEASURED METRIC: Tmax (h)
Provide the reading as a plain figure in h.

Problem: // lookup Tmax for `Cc1nc(NC(=O)N2CCC[C@H]2C(N)=O)sc1-c1ccnc(C(C)(C)C(F)(F)F)c1`
Result: 3.23

----------
test: Plasma pharmacokinetics of paclitaxel and alpelisib in Cycle 1; format: in vivo, human; details: human, plasma, po, oral alpelisib 250 mg QD + paclitaxel; C1D8; read-out: AUC0–24, geometric mean (CV%)
MEASURED METRIC: AUC(0-t) (ng·h/mL)
Provide the reading as a plain figure in ng·h/mL.

Problem: // lookup AUC(0-t) for Cc1nc(NC(=O)N2CCC[C@H]2C(N)=O)sc1-c1ccnc(C(C)(C)C(F)(F)F)c1 [alpelisib]
Result: 27700

----------
assay: Plasma pharmacokinetics of paclitaxel and alpelisib in Cycle 1; format: in vivo, human; conditions: human, plasma, iv, 80 mg/m^2, paclitaxel 80 mg/m^2 IV; C1D1; alpelisib 250 mg + paclitaxel cohort; read-out: Cmax, geometric mean (CV%)
MEASURED METRIC: Cmax

Problem: // lookup Cmax for CC(=O)O[C@H]1C(=O)[C@@]2(C)[C@H]([C@H](OC(=O)c3ccccc3)[C@]3(O)C[C@H](OC(=O)[C@H](O)[C@@H](NC(=O)c4ccccc4)c4ccccc4)C(C)=C1C3(C)C)[C@]1(OC(C)=O)CO[C@@H]1C[C@@H]2O [paclitaxel]
Result: 2770 ng/mL
